experiment: Peptide solubility in sterile pure water; type: physicochemical
experimentalEndpoint: solubility in H2O

Worked examples follow.
H-VNSLGFNIKATNGGT-OH [p55-69:Y55V]
insoluble
H-ENSLGFNIKATNGGT-OH [p55-69:Y55E]
soluble
H-AADAYITLVTLPKSS-OH [p143-157:V143A]
insoluble
H-SADAYITLVTLPKSS-OH [p143-157:V143S]
soluble
H-EDDITYVATATLPNY-OH [p113-127:S113E]
insoluble

Ask: Find the recorded solubility in H2O belonging to H-SNSLGFNIKATNGGT-OH [p55-69:Y55S] and report it.
Result: soluble

Ask: Look up solubility in H2O for this substance: H-SKDFVVQGVADAYIT-OH [p135-149:P135S]
Result: insoluble

Ask: Report solubility in H2O for H-PKDFVVQGVADAYIT-OH [p135-149] please.
Result: insoluble

Ask: Tell me the measured solubility in H2O of H-EKDFVVQGVADAYIT-OH [p135-149:P135E] , please.
Result: insoluble

Ask: Reported solubility in H2O for H-LQFTTIASLFAAAGL-OH [p1-15] : what is it?
Result: insoluble

Ask: For the substance shown here, H-ETYYNSLGFNIKATN-OH [p52-66:G52E] , give the reported solubility in H2O.
Result: insoluble

Ask: Returns the measured solubility in H2O for the input substance. Input: H-ESTYYNSLGFNIKAT-OH [p51-65:G52S]
Result: soluble

Ask: Fill blank: measured solubility in H2O of the substance H-STYYNSLGFNIKATN-OH [p52-66:G52S] is ____.
Result: soluble

Ask: Bench note: what solubility in H2O did H-EETYYNSLGFNIKAT-OH [p51-65:G52E] show?
Result: insoluble

Ask: Which measured solubility in H2O value corresponds to H-EADAYITLVTLPKSS-OH [p143-157:V143E] ?
Result: soluble

Ask: # query: solubility in H2O of entry H-ANSLGFNIKATNGGT-OH [p55-69:Y55A]
Result: soluble
